# TARGET OR SYSTEM: human TLR9 (Homo sapiens (Human))
# Sequence (Q9NR96 26-1032): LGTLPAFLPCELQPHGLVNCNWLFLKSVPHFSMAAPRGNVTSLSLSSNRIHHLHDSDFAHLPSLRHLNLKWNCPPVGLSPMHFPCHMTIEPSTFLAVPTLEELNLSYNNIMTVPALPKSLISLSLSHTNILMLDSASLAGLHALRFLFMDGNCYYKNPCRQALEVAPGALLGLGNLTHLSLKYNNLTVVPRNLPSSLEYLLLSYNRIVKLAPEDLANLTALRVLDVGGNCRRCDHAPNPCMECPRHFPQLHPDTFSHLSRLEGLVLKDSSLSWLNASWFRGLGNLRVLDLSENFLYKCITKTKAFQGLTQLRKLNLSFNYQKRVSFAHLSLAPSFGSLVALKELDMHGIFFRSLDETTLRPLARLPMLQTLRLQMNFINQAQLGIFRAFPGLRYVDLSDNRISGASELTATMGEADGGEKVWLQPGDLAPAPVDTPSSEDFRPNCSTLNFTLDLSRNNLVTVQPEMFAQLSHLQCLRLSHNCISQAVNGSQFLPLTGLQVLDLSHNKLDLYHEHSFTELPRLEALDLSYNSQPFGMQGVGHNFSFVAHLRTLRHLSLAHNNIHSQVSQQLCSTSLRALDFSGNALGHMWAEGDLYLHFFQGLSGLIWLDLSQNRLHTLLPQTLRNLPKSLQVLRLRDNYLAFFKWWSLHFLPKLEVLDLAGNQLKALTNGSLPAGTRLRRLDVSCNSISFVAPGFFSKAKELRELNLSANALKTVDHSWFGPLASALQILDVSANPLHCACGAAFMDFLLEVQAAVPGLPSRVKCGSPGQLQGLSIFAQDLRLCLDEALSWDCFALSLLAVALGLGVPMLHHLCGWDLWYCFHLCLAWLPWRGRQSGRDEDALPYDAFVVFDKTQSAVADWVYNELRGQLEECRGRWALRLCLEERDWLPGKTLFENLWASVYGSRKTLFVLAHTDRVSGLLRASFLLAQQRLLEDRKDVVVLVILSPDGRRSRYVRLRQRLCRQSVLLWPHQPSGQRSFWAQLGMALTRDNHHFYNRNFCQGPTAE
# ASSAY EXPLANATION: TLR9 inhibition reporter assay (HEK-Blue SEAP);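 note: SEAP driven by an IFN-β minimal promoter with NF-κB and AP-1 sites, read after 22 h, compounds dosed 0.05 nM–50 µM, inhibition scaled between agonist plus DMSO and reference-inhibitor wells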
# DETAILS: read-out: TLR9 IC50; HEK-Blue cells overexpressing human TLR9, ODN2006 5 nM stimulation, SEAP reporter
METRIC: pIC50
Bear in mind: pIC50 is minus log10 of a mol/L concentration; give just that figure.

Incoming: Find the recorded pIC50 belonging to COc1cc(-c2[nH]c3cc(C)c(C4CCC(NCC(C)(C)O)CC4)nc3c2C(C)C)cn2ncnc12 (stereo not shown) [Example 321] and report it.
Outgoing: 5.98

Incoming: Find the recorded pIC50 belonging to Cc1c(-c2[nH]c3ccc(C4CCC(NCCC(F)(F)F)CC4)nc3c2C(C)C)cn2ncnc2c1C (stereo not shown) [Example 376] and report it.
Outgoing: 5.99

Incoming: Find the recorded pIC50 belonging to Cc1cnc(CNC2CCC(c3ccc4[nH]c(-c5cc(CO)c6ncnn6c5)c(C(C)C)c4n3)CC2)cn1 (stereo not shown) [Example 224] and report it.
Outgoing: 6.14

Incoming: Find the recorded pIC50 belonging to COc1cc(-c2[nH]c3cc(C)c(C4CCC(N)CC4)nc3c2C(C)C)cn2ncnc12 (stereo not shown) [Example 318] and report it.
Outgoing: 5.97

Incoming: Find the recorded pIC50 belonging to CNC(=O)CN(C)C1CCC(c2ccc3[nH]c(-c4cc(OC)c5ncnn5c4)c(C(C)C)c3n2)CC1 (stereo not shown) [Example 227] and report it.
Outgoing: 6.03

Incoming: Find the recorded pIC50 belonging to Cc1ncc(CN(C)C2CCC(c3ccc4[nH]c(-c5cn6ncnc6c(C)c5C)c(C(C)C)c4n3)CC2)cn1 (stereo not shown) and report it.
Outgoing: 5.85

Incoming: Find the recorded pIC50 belonging to Cc1c(-c2[nH]c3ccc(C4CCC(NCC(=O)N(C)C)CC4)nc3c2C(C)C)cn2ncnc2c1C (stereo not shown) [Example 354] and report it.
Outgoing: 6.10

Incoming: Find the recorded pIC50 belonging to COc1cc(-c2[nH]c3ccc(C4CCC(NC(C)C)CC4)nc3c2C(C)C)cn2ncnc12 (stereo not shown) [Example 193] and report it.
Outgoing: 6.19

Incoming: Find the recorded pIC50 belonging to CC(C)c1c(-c2cc(CO)c3ncnn3c2)[nH]c2ccc(C3CCC(NCC(=O)N(C)C)CC3)nc12 (stereo not shown) [Example 216] and report it.
Outgoing: 6.38

Incoming: Find the recorded pIC50 belonging to COc1cc(-c2[nH]c3cc(C)c(C4CCC(NC5(C)COC5)CC4)nc3c2C(C)C)cn2ncnc12 (stereo not shown) [Example 310] and report it.
Outgoing: 5.75

###

# TARGET OR SYSTEM: human TLR8 (Homo sapiens (Human), UniProt Q9NR97)
# Sequence (Q9NR97 27-1041): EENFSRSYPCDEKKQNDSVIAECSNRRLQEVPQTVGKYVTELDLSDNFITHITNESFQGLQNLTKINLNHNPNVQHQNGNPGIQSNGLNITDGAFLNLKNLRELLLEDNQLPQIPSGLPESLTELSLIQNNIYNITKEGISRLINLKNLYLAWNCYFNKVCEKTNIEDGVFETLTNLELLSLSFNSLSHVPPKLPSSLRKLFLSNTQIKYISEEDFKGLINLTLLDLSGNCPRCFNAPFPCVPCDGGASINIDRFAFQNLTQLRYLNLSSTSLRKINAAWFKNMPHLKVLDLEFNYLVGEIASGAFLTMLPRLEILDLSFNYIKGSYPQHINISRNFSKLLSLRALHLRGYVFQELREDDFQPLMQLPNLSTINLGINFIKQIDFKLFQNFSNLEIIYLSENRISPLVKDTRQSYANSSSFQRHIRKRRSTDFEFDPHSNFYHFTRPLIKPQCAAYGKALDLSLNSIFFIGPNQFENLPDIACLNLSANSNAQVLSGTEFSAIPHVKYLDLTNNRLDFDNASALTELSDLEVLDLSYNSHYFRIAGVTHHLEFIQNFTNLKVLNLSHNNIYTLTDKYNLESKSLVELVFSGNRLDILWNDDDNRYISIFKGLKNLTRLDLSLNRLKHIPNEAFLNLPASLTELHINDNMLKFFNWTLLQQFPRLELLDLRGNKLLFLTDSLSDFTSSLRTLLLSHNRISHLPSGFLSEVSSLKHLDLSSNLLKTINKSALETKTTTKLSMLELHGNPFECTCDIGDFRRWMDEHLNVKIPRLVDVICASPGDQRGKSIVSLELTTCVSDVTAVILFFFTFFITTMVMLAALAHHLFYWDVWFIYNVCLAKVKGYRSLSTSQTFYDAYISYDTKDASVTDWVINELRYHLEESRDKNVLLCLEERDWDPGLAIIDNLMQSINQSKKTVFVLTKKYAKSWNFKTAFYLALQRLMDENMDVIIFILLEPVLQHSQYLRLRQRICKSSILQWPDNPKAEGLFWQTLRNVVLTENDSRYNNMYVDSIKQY
# ASSAY EXPLANATION: TLR8 inhibition reporter assay (HEK-Blue SEAP)
# DETAILS: read-out: TLR8 IC50; HEK-Blue cells overexpressing human TLR8, SEAP reporter, R848 15.9 μM
pIC50: −log10 of the molar value.
Kindly return class 1 if reported pIC50 is no lower than 8; return class 0 if it is lower.

Here's what some known entries look like.
# COMPOUND, CATEGORY
measured = [
    ("Cc1cc(-c2[nH]c3ccc(C4CNCCO4)nc3c2C(C)C)cn(C)c1=O (stereo not drawn) [Example 675]", "class 1"),
    ("Cc1c(-c2[nH]c3ccc(C4CCC(NC5CCS(=O)(=O)C5)CC4)nc3c2C(C)C)cn2ncnc2c1C (stereo not drawn) [Example 465]", "class 1"),
    ("COc1cc(-c2[nH]c3ccc(OC4CN(C(C)C)C4)nc3c2C(C)C)cn2ncnc12", "class 0"),
]

Incoming: Could you tell me if the measured pIC50 of Cc1c(-c2[nH]c3ccc(N4C[C@@H](C)N(C(=O)CCN5CCCC5)C[C@@H]4C)nc3c2C(C)C)cn2ncnc2c1C reaches 8 or more?
Outgoing: class 1

Incoming: Could you tell me if the measured pIC50 of COc1cc(-c2[nH]c3cc(C)c(C4CCNCC4)nc3c2C(C)C)cn2ncnc12 reaches 8 or more?
Outgoing: class 0

Incoming: Could you tell me if the measured pIC50 of Cc1c(-c2[nH]c3ccc(N4CCN(C(=O)CCN(C)C)[C@@H](C)C4)nc3c2C(C)C)cn2ncnc2c1C reaches 8 or more?
Outgoing: class 1

Incoming: Could you tell me if the measured pIC50 of Cc1c(-c2[nH]c3ccc(C4CCC(N)CC4)nc3c2C(C)C)cn2ncnc2c1C (stereo not drawn) [Example 466] reaches 8 or more?
Outgoing: class 0

Incoming: Could you tell me if the measured pIC50 of COc1cc(-c2[nH]c3cc(C)c(C4CCN(CC(C)(C)O)CC4)nc3c2C(C)C)cn2ncnc12 reaches 8 or more?
Outgoing: class 0
